Target: T1, human CCR8 (human, UniProt P51685 1-355)
T1 construct: whole, on cells; the cell line is named under assay; also called hCCR8
T1 sequence (P51685 whole entry): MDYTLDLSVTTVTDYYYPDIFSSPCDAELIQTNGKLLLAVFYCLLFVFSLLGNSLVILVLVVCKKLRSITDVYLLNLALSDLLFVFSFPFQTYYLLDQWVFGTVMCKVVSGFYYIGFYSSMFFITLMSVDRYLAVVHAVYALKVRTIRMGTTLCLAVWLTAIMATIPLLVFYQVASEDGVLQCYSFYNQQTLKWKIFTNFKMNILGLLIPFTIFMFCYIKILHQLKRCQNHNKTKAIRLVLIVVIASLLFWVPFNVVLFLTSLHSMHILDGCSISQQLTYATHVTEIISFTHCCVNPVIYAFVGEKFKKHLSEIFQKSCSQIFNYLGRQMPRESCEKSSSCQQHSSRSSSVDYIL
Experiment: flow cytometry, competition with 10 nM AF647-human CCL1 on 293F-hCCR8 cells
parameter: IC50 (mg/L)
The response must be a number in mg/L with no trailing unit.

Would you kindly share the measured IC50 for 563E10E12 (antibody, V domains shown, Murine hybridoma antibody; also called 563E10E12 hybridoma antibody) VH: EVQLIESGGGLVQPKGSLKLSCAASGFNFNAYAMNWVRQAPGKGLEWVARIRSKSNNFATYYADSVTDRFTISRDDSESMLYLQMNNLKTEDTAMYYCVRHGRRDLLYSMDFWGQGTSVTVSS VL: DVVMTQAAFSNPVTLGTSTSISCRSSKSLLHSNGITYLFWYLQKPGQSPQLLIYQMSNLASGVPDRFSGSGSGTDFTLRISRVEAEDVGVYYCAQSLELPLTFGGGTKLEIK ?
0.132

What do you get for 569D11B5 (antibody, V domains shown, Murine hybridoma antibody; also called 569D11B5 hybridoma antibody) VH: EVQLIESGGGLVQPKGSLKLSCAASGFNFNAYAMNWVRQAPGKGLEWVARIRSKSNDFATYYADSVKGRFTISRDDSENMLFLQMNNLKTEDTAMYYCVRHGRRDLLYSMDFWGQGTSVTVSS VL: DIVMTQAAFSNPVTLGTSASISCRSSKSLLHSNGITYLFWYLQKPGQSPQLLIYQMSNLASGVPDRFSGSGSGTDFTLRISRVEAEDVGVYYCAQSLELPLTFGGGTKLEIK ?
0.0882

What do you get for 27B9-1G3 (antibody, V domains shown, Murine hybridoma antibody (supernatant or Protein A purified); also called 27B9-1G3 hybridoma antibody) VH: EIQLQQSGPELEKPGASVKISCKASGYSFTGYNMNWVKKSNGKSLEWIGNIDPYYGGTNYNQKFKGKATLTVDKSSSTAYMQLKSLTSEDSAVYYCARETWFITTGVIKKGFYFDYWGQGTTLTVSS VL: EIVLTQSPTTMAASPGEKITLACSASSIISSNYLHWYQQKPGFSPKLLIYRTSSLASGVPARFSGSGSGTSYSLTIGTMEAEDVATYYCQQGSSIPRTFGGGTKLEIK ?
0.127

Continue with the binder presented below.
Would you kindly share the measured IC50 for 559E1B10 (antibody, V domains shown, Murine hybridoma antibody; also called 559E1B10 hybridoma antibody) VH: KVQLQQSGPVLVKPGASVKMSCKASGYTFTDYYVNWMKQNYGKSPEWIGVINPHNGDTRYNQKFKGKATLTVDKSSSTANMELTSLTSGDSAVYYCASWLRRGYYFDSWGQGTTLTVSS VL: DIVMTQSPATLSVTPGDRVSLSCRASQSISDYLHWYQQKSHESPRLLLKYVSQSISGIPSRFSGSGSGSDFTLTINSVEPEDVGVYYCQNGHSFPLTFGAGTKLELK ?
0.0785

The reported numbers originate from patent EP4624492A1.
